- Tested on: PC-3
- TEST SUMMARY: Growth inhibition of human PC3 cells at 10 uM after 48 hrs by SRB assay relative to control
- Type: functional
- STATED CONDITIONS: PC-3, 48 h, read-out: GI
Label y when inhibition of growth at 10 µM >= 30%; otherwise n.

COc1cc(NC(=O)c2cccc(-c3cc(=O)c4c(O)c(OC)c(OC)cc4o3)c2)cc(OC)c1OC ... y
COc1ccc(C(=O)Nc2cccc(-c3cc(=O)c4c(O)c(OC)c(OC)cc4o3)c2)cc1 ... n

State whether the measured inhibition of growth at 10 µM reaches 30%, counting equality as reaching it, for `COc1cccc(C(=O)Nc2cccc(-c3cc(=O)c4c(OC)c(OC)c(OC)cc4o3)c2)c1`
y

State whether the measured inhibition of growth at 10 µM reaches 30%, counting equality as reaching it, for `COc1ccc(NC(=O)c2cccc(-c3cc(=O)c4c(O)c(OC)c(OC)cc4o3)c2)cc1`
n
